Tested on: gum arabic
Assay: VHH binding to gum arabic in ELISA
Set-up: species or system acacia tree
Details: [VHH] 3 μg/ml (200 nM); gum arabic 100 μg/ml
reported.property: absorbance at 405 nm

[[record]]
molecule = "VHH5F5: plant-binding VHH, listed among SEQ ID NO:1-42 (protein, listed as Lama glama, 5F5) VHH: QVQLQESGGGLVQPGGSLRLSCAASGFPLGLYGIGWFRQAPGKEREAVSCDSVDDGSTNYLDSVKGRFTISRDNAKNMVYLQMNSLKPEDTAVYYCATTDCDAKAWGTWTNYRGQGTQVTVSS"
value_reported = 0.959

[[record]]
molecule = "VHH 5G5 (VHH, Hexahistidine-tagged) VHH: QVQLQESGGGLVQPGGSLRLSCAASGFSLRYFGIGWFRQAAGKEREGISCSNVRDGNTYYADSVKGRFTISRDNVRNMLYLQMNNLKPDDTAVYSCATTDCEATTWGTYRGYFGQGTQVTVSS"
value_reported = 1.966

[[record]]
molecule = "VHH 5D4 (VHH, Hexahistidine-tagged) VHH: QVQLQESGGGLVQPGGSLRLSCAASGFDMRRFGIGWFRQVAGKEREGVSCSNVHDGTTYYTNDVKGRFTIVRDNTKNMLYLQMNKLRPEDTAVYSCATTDCEATAWGTYRGYFGQGTQVTVSS"
value_reported = 1.280

[[record]]
molecule = "VHH7C2: plant-binding VHH, listed among SEQ ID NO:1-42 (protein, listed as Lama glama, 7C2) VHH: QVQLQESGGGLVQPGGSLRLSCAAFGFALANYGIGWFRQAPGKDRERVSCDSVDDGSTHYSNSVQGRFTIIRDNAKNTVFLQMNSLKAEDTAVYYCATTDCDATTWGTWINYRGQGTQVTVSS"
value_reported = 0.461

[[record]]
molecule = "VHH7A2: plant-binding VHH, listed among SEQ ID NO:1-42 (protein, listed as Lama glama, 7A2) VHH: QVQLQESGGGSVHPGGSLTLSCLASGFSLSNYGMGWFRQAPGKEREAVSCTSVPNGHIYYAESVKGRFTIVRDNAGNSVYLQMNSLKPEDAANYFCATTDCEAAHWGTWVNYYGQGTQVTVSS"
value_reported = 1.391

[[record]]
molecule = "VHH 3E6 (VHH, also called Monovalent VHH 3E6) VHH: QVQLQESGGGLVQPGGTLSLSCAASGFNVRWYGMGWFRQAPGKEREGVACISALQETTAYADSVKGRFTLSRDNPKNTLSLQMNNLQPEDTGVYYCATTDCDDSSRMTYTSYLGQGTQVTVSS"
value_reported = 2.154

[[record]]
molecule = "VHH 7D2 (VHH, Hexahistidine-tagged) VHH: QVQLQESGGGLVQPGRSLKVACAAAGFSLRYYGIGWFRQAPGKEREAVSCTSANDGSTYYRDSVRGRFTISRDDGKNTVYLQMNRLKPEDTAVYYCATTDCDATSWGTWINYYGQGTQVTVSS"
value_reported = 1.427

[[record]]
molecule = "VHH5E5: plant-binding VHH, listed among SEQ ID NO:1-42 (protein, listed as Lama glama, 5E5) VHH: QVQLQESGGGLVQPGGSLTLSCTASGFAMRRFGIGWFRQVVGKEREGVSCSNVHDGSTYYANYVKGRFTIVRDDTKNMLYLHMNSLRAEDTGVYSCATTDCEATAWGTYRGYFGQGTQVTVSS"
value_reported = 1.194

[[record]]
molecule = "VHH 5C4 (VHH, Hexahistidine-tagged) VHH: QVQLQESGGGLVQPGGSLRLSCAASGFSLRYFGIGWFRQVAGKEREPVSCSNVRDGNTYYADSVKGRFTISRDNVRNTLYLQMNSLKPEDTAVYSCATTDCEATTWGTYRGYFGQGTQVTVSS"
value_reported = 2.010


Where do these numbers come from? They come from patent US20130217572A1.
